System: Escherichia coli AG100, AG112 and derived fluoroquinolone-resistant mutants with ΔacrAB
Protocol Details: MIC by broth microdilution, AcrAB-deleted strains
Type: cell-based
Assay Setup: Escherichia coli, strain 3*-AG100, ΔacrAB
Experimental Readout: MIC

Example compounds with recorded MIC:
cpd_smiles=C[C@@H]1CN(c2c(F)c(N)c3c(=O)c(C(=O)O)cn(C4CC4)c3c2F)C[C@H](C)N1 test_target="Escherichia coli AG100, AG112 and derived fluoroquinolone-resistant mutants with ΔacrAB" experimental_readout=MIC value_observed="≤ 0.015 µg/mL"
cpd_smiles=O=C(N[C@H](CO)[C@H](O)c1ccc([N+](=O)[O-])cc1)C(Cl)Cl test_target="Escherichia coli AG100, AG112 and derived fluoroquinolone-resistant mutants with ΔacrAB" experimental_readout=MIC value_observed="1 µg/mL"
cpd_smiles=CO[C@@]1(NC(=O)Cc2cccs2)C(=O)N2C(C(=O)O)=C(COC(N)=O)CS[C@@H]21 test_target="Escherichia coli AG100, AG112 and derived fluoroquinolone-resistant mutants with ΔacrAB" experimental_readout=MIC value_observed="0.5 µg/mL"

We next turn to a different compound, shown below.
// query Requested field: MIC. Item: "CN(C)[C@@H]1C(O)=C(C(N)=O)C(=O)[C@@]2(O)C(O)=C3C(=O)c4c(O)cccc4[C@@](C)(O)[C@H]3C[C@@H]12"
// result 1 µg/mL

----------
Tested on: Escherichia coli K-12 AG100, its Mar mutant AG112 and derived fluoroquinolone-resistant mutants (acrAB+)
Protocol Details: MIC by broth microdilution, acrAB+ strains
Format: cell-based
Assay Setup: Escherichia coli, strain 2-AG100 (2°-AG100), acrAB+; read-out: MIC
// values below are reported MIC
Reply numerically in mg/L, unit not repeated.

Known results for compounds:
compound="CN(C)[C@@H]1C(O)=C(C(N)=O)C(=O)[C@@]2(O)C(O)=C3C(=O)c4c(O)cccc4[C@@](C)(O)[C@H]3C[C@@H]12 [TET, tetracycline]" experimental_readout=MIC units_label=mg/L value_observed=2
compound="CO[C@@]1(NC(=O)Cc2cccs2)C(=O)N2C(C(=O)O)=C(COC(N)=O)CS[C@@H]21 [CFOX, cefoxitin]" experimental_readout=MIC units_label=mg/L value_observed=16
compound="O=C(N[C@H](CO)[C@H](O)c1ccc([N+](=O)[O-])cc1)C(Cl)Cl [CML, chloramphenicol]" experimental_readout=MIC units_label=mg/L value_observed=16
compound="CC1COc2c(N3CCN(C)CC3)c(F)cc3c(=O)c(C(=O)O)cn1c23 (centres unmarked) [OFL, ofloxacin]" experimental_readout=MIC units_label=mg/L value_observed=1

// query Suppose we examine the compound C[C@@H]1CN(c2c(F)c(N)c3c(=O)c(C(=O)O)cn(C4CC4)c3c2F)C[C@H](C)N1 [SPX, sparfloxacin] ; what MIC value has been reported?
// result 0.25

----------
Test system: Escherichia coli K-12 AG100, its Mar mutant AG112 and derived fluoroquinolone-resistant mutants (acrAB+)
Protocol Details: MIC by broth microdilution, acrAB+ strains
Assay type: cell-based
Assay Setup: Escherichia coli, strain 2-AG112 (2′-AG112), acrAB+; read-out: MIC
Procedure: Selection of fluoroquinolone-resistant mutants. 1-AG100, 2°-AG100, 3*-AG100, 4*-AG100 and 1′-AG112, 2′-AG112, 3′-AG112 were sequential step mutants derived from AG 100 and AG112, respectively, on solid media. […] Susceptibility testing. […] MICs of bile salts were determined by a broth macrodilution procedure: sodium cholate and sodium deoxycholate were serially diluted twofold in LB broth and tubes inoculated at 5×10^5 CFU/ml. […]
Experimental Readout: MIC
Give the value; after it, write the unit.

Example results:
molecule="O=C(N[C@H](CO)[C@H](O)c1ccc([N+](=O)[O-])cc1)C(Cl)Cl [CML, chloramphenicol]" value_observed="64 µg/mL"
molecule="CC1COc2c(N3CCN(C)CC3)c(F)cc3c(=O)c(C(=O)O)cn1c23 (stereo not shown) [OFL, ofloxacin]" value_observed="4 µg/mL"
molecule="CO[C@@]1(NC(=O)Cc2cccs2)C(=O)N2C(C(=O)O)=C(COC(N)=O)CS[C@@H]21 [CFOX, cefoxitin]" value_observed="32 µg/mL"
molecule="C[C@@H]1CN(c2c(F)c(N)c3c(=O)c(C(=O)O)cn(C4CC4)c3c2F)C[C@H](C)N1 [SPX, sparfloxacin]" value_observed="1 µg/mL"
molecule="CN(C)[C@@H]1C(O)=C(C(N)=O)C(=O)[C@@]2(O)C(O)=C3C(=O)c4c(O)cccc4[C@@](C)(O)[C@H]3C[C@@H]12 [TET, tetracycline]" value_observed="16 µg/mL"
molecule="O=C(O)c1cn(C2CC2)c2cc(N3CCNCC3)c(F)cc2c1=O [CIP, ciprofloxacin]" value_observed="2 µg/mL"

API: the following record is the query input.
// query Please report the recorded MIC for N[C@@H]1[C@H]2CN(c3nc4c(cc3F)c(=O)c(C(=O)O)cn4-c3ccc(F)cc3F)C[C@@H]12 [TVA, trovafloxacin] .
// result 1 µg/mL

meta.source: patent US8012711B2
